Test: Cytotoxicity assay (CellTiter-Glo, 72 h), SKOV-3
Format: cell-based, human
Conditions: human, SKOV-3 cells (ovarian adenocarcinoma), conc 0.0976562 uM; raw replicate data; read-out: SKOV3 viability (%)
Measured property: viability at 72 h, 0.0976562 uM

Molecule	Measured property	Value measured
CO[C@H]1C[C@@H]2CC[C@@H](C)[C@@](O)(O2)C(=O)C(=O)N2CCCC[C@H]2C(=O)O[C@H]([C@H](C)C[C@@H]2CC[C@@H](O)[C@H](OC)C2)CC(=O)[C@H](C)/C=C(\C)[C@@H](O)CC[C@H](C)/C=C/C=C/C=C/1C	viability at 72 h, 0.0976562 uM	88.5%
CO[C@@H]1C[C@H](C[C@@H](C)[C@@H]2CC(=O)[C@H](C)/C=C(\C)[C@@H](O)[C@@H](OC)C(=O)[C@H](C)C[C@H](C)/C=C/C=C/C=C(\C)[C@H](O)C[C@@H]3CC[C@@H](C)[C@@](O)(O3)C(=O)C(=O)N3CCCC[C@H]3C(=O)O2)CC[C@H]1O [Compound 17, (16R)-16-O-demethyl rapamycin]	viability at 72 h, 0.0976562 uM	77.9%
COC1CC2CCC(C)C(O)(O2)C(=O)C(=O)N2CCCCC2C(=O)OC(C(C)CC2CCC(O)C(OC)C2)CC(=O)C(C)C=C(C)C(O)CC(=O)C(C)C=C(C)C=CC=CC=C1C (stereo not drawn)	viability at 72 h, 0.0976562 uM	100%
CO[C@H]1C[C@@H]2CC[C@@H](C)[C@@](O)(O2)C(=O)C(=O)N2CCCC[C@H]2C(=O)O[C@H]([C@H](C)C[C@@H]2CC[C@@H](O)[C@H](OC)C2)CC(=O)[C@H](C)/C=C(\C)[C@@H](O)[C@@H](OC)C(=O)[C@H](C)C[C@H](C)/C=C/C=C/C=C/1C [Compound 1, rapamycin, reference compound]	viability at 72 h, 0.0976562 uM	61.7%
CO[C@@H]1/C=C/C=C/[C@@H](C)C[C@@H](C)C(=O)C[C@H](O)/C(C)=C/[C@@H](C)C(=O)C[C@@H]([C@H](C)C[C@@H]2CC[C@@H](O)[C@H](OC)C2)OC(=O)[C@@H]2CCCCN2C(=O)C(=O)[C@]2(O)O[C@@H](CC[C@H]2C)C1	viability at 72 h, 0.0976562 uM	92.1%
COC1CC2CCC(C)C(O)(O2)C(=O)C(=O)N2CCCCC2C(=O)OC(C(C)CC2CCC(O)C(OC)C2)CC(=O)C(C)C=C(C)C(O)C(OC)C(=O)C(C)CC(C)C=CCCC=C1C (stereo not drawn)	viability at 72 h, 0.0976562 uM	99.4%
COC1CC2CCC(C)C(O)(O2)C(=O)C(=O)N2CCCCC2C(=O)OC(C(C)CC2CCC(O)C(OC)C2)CCC(C)C=C(C)C(O)C(OC)C(=O)C(C)CC(C)C=CC=CC=C1C (stereo not drawn)	viability at 72 h, 0.0976562 uM	58.2%
COC1CC2CCC(C)C(O)(O2)C(=O)C(=O)N2CCCCC2C(=O)OC(C(C)CC2CCC(O)C(OC)C2)CC(O)CC(=O)C(C)C=C(C)C(O)CC(=O)C(C)CC(C)C=CC=CC=C1C (stereo not drawn)	viability at 72 h, 0.0976562 uM	93.5%

# input Find the recorded viability at 72 h, 0.0976562 uM belonging to `CO[C@H]1C[C@@H]2CC[C@@H](C)[C@@](O)(O2)C(=O)C(=O)N2CCCC[C@H]2C(=O)O[C@H]([C@H](C)C[C@@H]2CC[C@@H](O)[C@H](OC)C2)CC(=O)[C@H](C)/C=C(\C)[C@@H](O)CC(=O)[C@H](C)C[C@H](C)/C=C/C=C(C)/C=C/1C` and report it.
# output 97.7%
